# target.desc: RORγ-LBD (Homo sapiens, UniProt P51449)
# Construct: made in house; host or cells: SF9 cells (baculovirus); used as diluted lysate
# Sequence (P51449 269-508 limits assumed): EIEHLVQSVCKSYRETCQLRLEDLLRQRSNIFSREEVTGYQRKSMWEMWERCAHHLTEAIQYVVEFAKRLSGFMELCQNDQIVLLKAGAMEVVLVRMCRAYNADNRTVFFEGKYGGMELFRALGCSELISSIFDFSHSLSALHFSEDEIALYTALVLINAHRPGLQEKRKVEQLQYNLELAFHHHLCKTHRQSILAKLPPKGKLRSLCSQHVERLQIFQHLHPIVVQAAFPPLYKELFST
# method.notes: RORγ-Ligand Binding Domain (LBD) TR-FRET Assay
# Type: biochemical
# condition: RORγ-LBD TR-FRET
pEC50: −log10 of the molar value.
measurement.kind: pEC50

Known pEC50 results, listed for orientation:
{"molecule": "CCOc1nn(CC)cc1S(=O)(=O)N1C[C@H](CCC(=O)OC)Oc2ccc(/C=C/c3ccccc3Cl)cc21 [Example 89BD]", "pEC50": "> 6.30"}
{"molecule": "COc1cc(S(=O)(=O)N2c3cc(OC4CCc5ccccc54)ccc3C[C@@H](C(=O)O)[C@H]2C)ccc1F (mixture of isomers)", "pEC50": "> 6.30"}
{"molecule": "COC(=O)CC[C@H]1CN(S(=O)(=O)c2cccc(C(F)(F)F)c2)c2c(ccc(/C=C(\\C)c3c(F)cccc3Cl)c2F)O1", "pEC50": "> 6.30"}
{"molecule": "CC(=O)c1cccc(/C=C/c2ccc3c(c2)N(S(=O)(=O)c2cccc(C(F)(F)F)c2)C[C@H](CCC(=O)O)O3)n1 [Example 89BX]", "pEC50": "< 5.00"}
{"molecule": "COC(=O)CC[C@H]1CN(S(=O)(=O)c2cccc(C(F)(F)F)c2)c2cc(/C=C/c3c(Cl)cccc3OC)ccc2O1 [Example 89EZ]", "pEC50": "> 6.30"}

Go through the list and state pEC50 for each entry.
1. C/C(=C\c1ccc2c(c1)N(S(=O)(=O)c1ccc(F)c(Cl)c1)C[C@H](CCC(=O)O)O2)c1c(F)cccc1Cl [Example 86E]
2. COC(=O)CC[C@H]1CN(S(=O)(=O)c2cccc(C(F)(F)F)c2)c2cc(/C=C/c3c(OC)cccc3C(F)(F)F)ccc2O1 [Example 89ES]
3. COC(=O)CC[C@H]1CN(S(=O)(=O)c2cccc(OC(F)F)c2)c2cc(/C=C/c3ccccc3C#N)ccc2O1 [Example 89AR]
4. COC(=O)CC[C@H]1CN(S(=O)(=O)c2cccc(C(F)(F)F)c2)c2cc(/C=C/c3ccccn3)ccc2O1 [Example 89DH]
5. COC(=O)CC[C@H]1CN(S(=O)(=O)c2cccc(OC(F)F)c2)c2cc(/C=C(\C)c3c(F)cccc3Cl)c(F)cc2O1

["> 6.30", "> 6.30", "> 6.30", "> 6.30", "> 6.30"]

Respectfully, I request pEC50 for each entry included below.
1. COC(=O)CC[C@H]1CN(S(=O)(=O)c2cccc(OC)c2)c2cc(/C=C(\C)c3c(F)cccc3Cl)ccc2O1 [Example 86N]
2. CCOc1nn(CC)cc1S(=O)(=O)N1C[C@H](CCC(=O)O)Oc2ccc(/C=C/c3cccc(OC)n3)cc21 [Example 89S]
3. COc1cccnc1/C=C/c1ccc2c(c1)N(S(=O)(=O)c1cccc(C(F)(F)F)c1)C[C@H](CCC(=O)O)O2 [Example 89DK]
4. O=C(O)CC[C@H]1CN(S(=O)(=O)c2cccc(C(F)(F)F)c2)c2cc(/C=C/c3ccncn3)ccc2O1 [Example 89CC]

["> 6.30", "5.30 to 6.30", "> 6.30", "< 5.00"]

###

# target.desc: Gal4-RORγ-LBD (Homo sapiens)
# Construct: expressed in transfected cells
# method.notes: Gal4-RORγ Luciferase Reporter Assay in HEK-293T Cells
# Type: cell-based
# condition: HEK-293 cells, luciferase reporter, in presence of ursolic acid
Answer each item with its documented EC50.

{"compound": "C/C(=C\\c1ccc2c(c1)N(S(=O)(=O)c1cccc(C(F)(F)F)c1)C[C@H](CCC(=O)N(C)CC(=O)O)O2)c1c(F)cccc1Cl [Example 129F]", "measurement.kind": "EC50", "reported.result": "< 0.5 µM"}
{"compound": "O=S(=O)(c1cccc(C(F)(F)F)c1)N1C[C@@H](O)Cc2ccc(OCc3c(F)cccc3Cl)cc21", "measurement.kind": "EC50", "reported.result": "< 0.5 µM"}

Provide EC50 values for the following items, in order.
1. C/C(=C\c1ccc2c(c1)N(S(=O)(=O)c1cccc(C(F)(F)F)c1)C[C@H](CCC(=O)N1CCNCC1)O2)c1c(F)cccc1Cl [Example 127F]
2. COc1cc(S(=O)(=O)C2CC(CC(C)(C)C(=O)O)Oc3ccc(OCc4c(F)cccc4Cl)cc32)ccc1F (stereo not shown) [Example 186C]
3. CC(C)(CC1CC(S(=O)(=O)c2cccc(C(F)(F)F)c2)c2cc(OCc3c(F)cccc3Cl)ccc2O1)C(=O)O (stereo not shown) [Example 186E]
4. C/C(=C\c1ccc2c(c1)N(S(=O)(=O)c1cccc(C(F)(F)F)c1)C[C@H](CC(=O)O)O2)c1c(F)cccc1Cl
5. CCn1cc(S(=O)(=O)N2C[C@H]([C@@H](C)NS(C)(=O)=O)Oc3ccc(/C=C(\C)c4c(F)cccc4Cl)cc32)c(Cl)n1

1. 0.5 to 5 µM
2. > 10 µM
3. 0.5 to 5 µM
4. 0.5 to 5 µM
5. > 10 µM

###

# target.desc: Gal4-RORγ-LBD (Homo sapiens, UniProt P51449)
# Construct: expressed in transfected cells
# method.notes: Gal4-RORγ Luciferase Reporter Assay in HEK-293T Cells
# Type: cell-based
# condition: HEK-293 cells, luciferase reporter, with ursolic acid
measurement.kind: EC50

Known EC50 results, listed for orientation:
{"compound": "CCOc1nn(CC)cc1S(=O)(=O)N1C[C@H](CCC(=O)O)Oc2ccc(/C=C/c3c(C)cccc3F)cc21 [Example 89AG]", "target.desc": "Gal4-RORγ-LBD (Homo sapiens, UniProt P51449)", "measurement.kind": "EC50", "reported.result": "< 0.5 µM"}
{"compound": "Cn1ncnc1/C=C/c1ccc2c(c1)N(S(=O)(=O)c1cccc(C(F)(F)F)c1)C[C@H](CCC(=O)O)O2 [Example 89CJ]", "target.desc": "Gal4-RORγ-LBD (Homo sapiens, UniProt P51449)", "measurement.kind": "EC50", "reported.result": "> 10 µM"}

Could I get EC50 for every one of these entries?
1. CC1(C)CCC(=Cc2ccc3c(c2)N(S(=O)(=O)c2cc(C(F)(F)F)cnc2OCCO)C[C@H](CCC(=O)O)O3)CC1 [Example 95W]
2. COC(=O)CC[C@H]1CN(S(=O)(=O)c2cccc(OC(F)F)c2)c2cc(/C=C(\C)c3c(F)cccc3Cl)c(Cl)cc2O1 [Example 47]
3. O=C(O)CC[C@H]1CN(S(=O)(=O)c2ccc(F)c(OC(F)F)c2)c2cc(/C=C/c3c(F)cccc3Cl)ccc2O1 [Example 89CV]
4. CCOc1nn(CC)cc1S(=O)(=O)N1C[C@H](CCC(=O)OC)Oc2ccc(/C=C/c3nccnc3Cl)cc21 [Example 89N]
5. COc1ccccc1/C=C/c1ccc2c(c1)N(S(=O)(=O)c1cccc(OC(F)F)c1)C[C@H](CCC(=O)O)O2 [Example 89AY]

1. 0.5 to 5 µM
2. 5 to 10 µM
3. < 0.5 µM
4. > 10 µM
5. 0.5 to 5 µM

###

# target.desc: RORγ-LBD (Homo sapiens, UniProt P51449)
# Construct: made in house; host or cells: SF9 cells (baculovirus); used as diluted lysate
# method.notes: RORγ-Ligand Binding Domain (LBD) TR-FRET Assay
# Assay type: biochemical
# condition: RORγ-LBD TR-FRET
measurement.kind: EC50

Observe how each entry below is paired with its result.
{"molecule": "CCOc1nn(CC)cc1S(=O)(=O)N1C[C@H](CCC(=O)OC)Oc2ccc(/C=C/c3cccnc3)cc21 [Example 89J]", "reported.result": "500 to 5000 nM"}
{"molecule": "COC(=O)C(C)(C)C[C@@H]1Cc2ccc(OCc3c(F)cccc3Cl)cc2N(S(=O)(=O)c2ccc(F)c(OC)c2)C1", "reported.result": "< 500 nM"}

Take each entry in turn and give its EC50.
1. O=C(O)CC[C@H]1CN(S(=O)(=O)c2cccc(C(F)F)c2)c2cc(/C=C/c3c(Cl)cccc3C(F)(F)F)ccc2O1
2. COC(=O)CC[C@H]1CN(S(=O)(=O)c2cccc(OC(F)F)c2)c2cc(/C=C/c3c(F)cccc3C(F)(F)F)ccc2O1 [Example 89AJ]

["< 500 nM", "< 500 nM"]
